- Assay target: EGFR (Homo sapiens, UniProt P00533)
- Sequence (P00533 25-1210): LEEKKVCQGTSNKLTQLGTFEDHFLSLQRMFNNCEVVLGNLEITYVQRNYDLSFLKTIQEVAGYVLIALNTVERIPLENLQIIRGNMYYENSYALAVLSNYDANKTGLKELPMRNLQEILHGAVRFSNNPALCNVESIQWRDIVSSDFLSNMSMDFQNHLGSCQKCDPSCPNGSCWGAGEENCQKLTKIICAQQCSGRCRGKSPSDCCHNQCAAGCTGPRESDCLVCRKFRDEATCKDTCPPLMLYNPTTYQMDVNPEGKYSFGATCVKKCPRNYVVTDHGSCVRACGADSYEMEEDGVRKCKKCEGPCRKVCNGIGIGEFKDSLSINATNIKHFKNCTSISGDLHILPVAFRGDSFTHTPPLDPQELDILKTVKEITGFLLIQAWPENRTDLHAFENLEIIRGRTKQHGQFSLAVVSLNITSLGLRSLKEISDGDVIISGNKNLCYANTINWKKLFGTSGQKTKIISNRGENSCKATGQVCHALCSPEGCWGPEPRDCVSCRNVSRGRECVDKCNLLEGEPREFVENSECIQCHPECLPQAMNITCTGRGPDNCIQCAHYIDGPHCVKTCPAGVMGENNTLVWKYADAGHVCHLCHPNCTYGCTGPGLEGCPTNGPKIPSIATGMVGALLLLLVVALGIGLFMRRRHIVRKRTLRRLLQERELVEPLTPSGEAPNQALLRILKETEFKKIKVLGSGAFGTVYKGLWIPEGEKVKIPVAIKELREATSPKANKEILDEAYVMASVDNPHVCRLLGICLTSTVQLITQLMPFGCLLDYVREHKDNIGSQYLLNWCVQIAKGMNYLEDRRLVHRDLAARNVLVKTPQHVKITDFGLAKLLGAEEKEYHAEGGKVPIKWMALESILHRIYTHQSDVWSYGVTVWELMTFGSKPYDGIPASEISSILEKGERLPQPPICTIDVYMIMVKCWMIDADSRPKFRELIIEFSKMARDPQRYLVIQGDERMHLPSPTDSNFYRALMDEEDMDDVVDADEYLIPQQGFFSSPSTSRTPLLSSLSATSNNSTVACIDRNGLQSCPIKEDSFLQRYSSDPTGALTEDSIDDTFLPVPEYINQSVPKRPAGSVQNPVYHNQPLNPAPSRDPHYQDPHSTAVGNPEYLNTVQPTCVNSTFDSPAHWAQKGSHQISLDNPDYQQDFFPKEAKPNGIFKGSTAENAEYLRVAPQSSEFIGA
Value kind: IC50

> print(dat)
                           molecular.string                         assay.target  obs.value
1  CN(C)c1ccc(/C=C/C(=O)c2ccc(/N=N/c3ccc(O)c(C(=O)O)c3)cc2)cc1  EGFR (Homo sapiens, UniProt P00533)     2.8 µM
2  O=C(/C=C/c1ccc(F)cc1)c1cccc(/N=N/c2ccc(O)cc2)c1  EGFR (Homo sapiens, UniProt P00533)     5.8 µM

###

- Tested on: IL-6
- Test: ELISA, LPS-induced IL-6 release in RAW264.7 macrophages
- Assay type: cell-based, mouse
- Protocol conditions: RAW 264.7, compound 10 µM, IL-6 relative to LPS control = 100
Threshold-based label: Relative Amount of LPS (IL-6) under 30 gives Y, Relative Amount of LPS (IL-6) not under 30 gives N.

> print(dat)
                           molecular.string  assay.target  label
1  CC(=O)c1cccc(/N=N/c2ccc(O)c(C(=O)O)c2)c1          IL-6      Y
2  CN(C)c1ccc(/C=C/C(=O)c2cccc(/N=N/c3ccc(O)c4ccccc34)c2)cc1          IL-6      N
3  CN(C)c1ccc(/C=C/C(=O)c2ccc(/N=N/c3ccc(O)c(C(=O)O)c3)cc2)cc1          IL-6      Y
4  O=C(/C=C/c1ccc(F)cc1)c1cccc(/N=N\c2ccc(O)c(C(=O)O)c2)c1          IL-6      Y
5    CC(=O)c1cccc(/N=N/c2ccc(O)c3ccccc23)c1          IL-6      N

###

Listed next: entries and their corresponding IC50.
- Assay target: human recombinant sPLA2-V (Homo sapiens)
- Sequence (P39877 21-138): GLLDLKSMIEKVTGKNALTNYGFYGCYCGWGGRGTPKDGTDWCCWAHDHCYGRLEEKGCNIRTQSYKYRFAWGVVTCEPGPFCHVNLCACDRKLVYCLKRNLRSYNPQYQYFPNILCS
- Test: Secretory PLA2-V activity assay (Ellman's photometric method)
- Protocol conditions: read-out: sPLA2-V IC50; mean ± SD; n = 3

Compound	IC50 [µM]
CN(C)c1ccc(/C=C/C(=O)c2ccc(/N=N/c3ccc(O)c(C(=O)O)c3)cc2)cc1	2.01
C[C@@H]1C[C@H]2[C@@H]3CCC4=CC(=O)C=C[C@]4(C)[C@@]3(F)[C@@H](O)C[C@]2(C)[C@@]1(O)C(=O)CO [Dexamethasone, reference compound]	0.57

###

- Assay target: Sheep-derived COX-1 (Ovis aries)
- Sequence (P05979 25-600): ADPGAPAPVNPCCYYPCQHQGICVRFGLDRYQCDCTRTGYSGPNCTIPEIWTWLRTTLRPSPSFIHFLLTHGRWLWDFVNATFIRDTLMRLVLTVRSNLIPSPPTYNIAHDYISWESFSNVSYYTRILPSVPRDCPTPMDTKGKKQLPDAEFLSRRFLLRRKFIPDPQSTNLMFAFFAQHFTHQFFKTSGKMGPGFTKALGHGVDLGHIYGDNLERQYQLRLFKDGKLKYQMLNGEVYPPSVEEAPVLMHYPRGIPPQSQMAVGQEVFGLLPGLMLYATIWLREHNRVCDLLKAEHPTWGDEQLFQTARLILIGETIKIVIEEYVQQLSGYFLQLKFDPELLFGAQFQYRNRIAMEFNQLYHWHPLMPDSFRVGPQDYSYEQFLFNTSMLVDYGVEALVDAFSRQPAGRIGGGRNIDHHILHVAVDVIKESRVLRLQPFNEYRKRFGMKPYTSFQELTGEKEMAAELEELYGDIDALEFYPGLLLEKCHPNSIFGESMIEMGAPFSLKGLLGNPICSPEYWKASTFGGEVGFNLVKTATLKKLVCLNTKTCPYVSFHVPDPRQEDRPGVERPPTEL
- Test: Cyclooxygenase assay (PGE2 quantification), COX-1
Listed next: entries and their corresponding IC50.
Value kind: IC50 (µM)

> print(dat)
                            molecular.string  obs.value
 1  CN(C)c1ccc(/C=C/C(=O)c2cccc(/N=N/c3ccc(O)cc3)c2)cc1       18.3
 2  CN(C)c1ccc(/C=C/C(=O)c2cccc(/N=N\c3ccc(O)c4ncccc34)c2)cc1       40.2
 3         CC(=O)c1cccc(/N=N/c2ccc(O)cc2O)c1       22.2
 4  O=C(/C=C/c1ccc(F)cc1)c1cccc(/N=N\c2ccc(O)c(C(=O)O)c2)c1       8.57
 5    CC(=O)c1cccc(/N=N/c2ccc(O)c3ncccc23)c1       4.85
 6  CN(C)c1ccc(/C=C/C(=O)c2cccc(/N=N/c3ccc(O)cc3O)c2)cc1       11.5
 7  O=C(/C=C/c1ccc(F)cc1)c1cccc(/N=N/c2ccc(O)cc2O)c1       5.14
 8    CC(=O)c1cccc(/N=N/c2c(O)ccc3ccccc23)c1       9.23
 9    CC(=O)c1cccc(/N=N/c2ccc(O)c3ccccc23)c1       11.1
10  CC(=O)c1cccc(/N=N/c2ccc(O)c(C(=O)O)c2)c1       0.21
11  CN(C)c1ccc(/C=C/C(=O)c2cccc(/N=N/c3ccc(O)c4ccccc34)c2)cc1        7.1
12  O=C(/C=C/c1ccc(F)cc1)c1cccc(/N=N/c2ccc(O)cc2)c1       7.52
13  CN(C)c1ccc(/C=C/C(=O)c2cccc(/N=N\c3c(O)ccc4ccccc34)c2)cc1       49.1
